These entries and their values trace back to patent US20190322638A1.

# Tested on: human peripheral blood leukemia T cell lines (Jurkat cells)
# measurement_notes: In vitro antitumor activity, Jurkat cells
# Format: cell-based
# cond: Jurkat cell line vs L-02
measurement_label: SI = CC50 (normal cell line L-02)/IC50 (tumor cell line)

Solved entries (count: 3):
C[C@H]1O[C@H](Oc2cc(/C=N/O)nc(-c3ccccn3)c2)[C@H](O)[C@@H](O)[C@@H]1O [Compound 7]
45.8
COc1cc(C=O)nc(-c2ccccn2)c1 [Compound 6]
2.2
C[C@@H]1O[C@@H](Oc2cc(/C=N/O)nc(-c3ccccn3)c2)[C@H](O)[C@H](O)[C@H]1O [Compound 1]
2.6

Exercise: Reported SI = CC50 (normal cell line L-02)/IC50 (tumor cell line), molecule COc1cc(/C=N/O)nc(-c2ccccn2)c1 [Compound 2] : ____
Key: 19.5

* * *

# Tested on: cervical cancer cell lines (Hela cells)
# measurement_notes: In vitro antitumor activity, MTT method
# Type: cell-based
# cond: Hela cell line vs L-02
Each item that follows carries a reported SI = CC50 (normal cell line L-02)/IC50 (tumor cell line).
Reply: number alone, nothing else.

Solved entries (count: 3):
COc1cc(C=O)nc(-c2ccccn2)c1
1.6
C[C@@H]1O[C@@H](Oc2cc(/C=N/O)nc(-c3ccccn3)c2)[C@H](O)[C@H](O)[C@H]1O
3.1
C[C@H]1O[C@H](Oc2cc(/C=N/O)nc(-c3ccccn3)c2)[C@H](O)[C@@H](O)[C@@H]1O
23.8

Exercise: Reported SI = CC50 (normal cell line L-02)/IC50 (tumor cell line), compound COc1cc(/C=N/O)nc(-c2ccccn2)c1 : ____
Key: 39

Exercise: Reported SI = CC50 (normal cell line L-02)/IC50 (tumor cell line), compound COc1cc(/C=N/O)nc(-c2ccc(F)cn2)c1 : ____
Key: 1.7

* * *

Each item that follows carries a reported CC50 at 72 h.
# measurement_notes: Toxicity to normal cells, MTT method
# Type: cell-based
# cond: human, L-02 normal liver cells, L-02 cell line
Answer format: numeric, µM implied, no suffix.

Exercise: Reported CC50 at 72 h, molecule COc1cc(/C=N/O)nc(-c2ccc(F)cn2)c1 : ____
Key: 7.5

Exercise: Reported CC50 at 72 h, molecule C[C@@H]1O[C@@H](Oc2cc(/C=N/O)nc(-c3ccccn3)c2)[C@H](O)[C@H](O)[C@H]1O : ____
Key: 28.3

Exercise: Reported CC50 at 72 h, molecule C[C@H]1O[C@H](Oc2cc(/C=N/O)nc(-c3ccccn3)c2)[C@H](O)[C@@H](O)[C@@H]1O : ____
Key: 59.5

Exercise: Reported CC50 at 72 h, molecule COc1cc(C=O)nc(-c2ccccn2)c1 : ____
Key: 31.4

* * *

# Tested on: human colon cancer cell lines (HCT-116 cells)
# measurement_notes: In vitro antitumor activity, SRB method
# Type: cell-based
# cond: HCT-116 cell line vs L-02
measurement_label: SI = CC50 (normal cell line L-02)/IC50 (tumor cell line)
Reply: number alone, nothing else.

COc1cc(C=O)nc(-c2ccccn2)c1 [Compound 6]
5.2

Exercise: Reported SI = CC50 (normal cell line L-02)/IC50 (tumor cell line), molecule COc1cc(/C=N/O)nc(-c2ccccn2)c1 [Compound 2] : ____
Key: 13.0

Exercise: Reported SI = CC50 (normal cell line L-02)/IC50 (tumor cell line), molecule C[C@@H]1O[C@@H](Oc2cc(/C=N/O)nc(-c3ccccn3)c2)[C@H](O)[C@H](O)[C@H]1O [Compound 1] : ____
Key: 40.4

Exercise: Reported SI = CC50 (normal cell line L-02)/IC50 (tumor cell line), molecule C[C@H]1O[C@H](Oc2cc(/C=N/O)nc(-c3ccccn3)c2)[C@H](O)[C@@H](O)[C@@H]1O [Compound 7] : ____
Key: 27.0

Exercise: Reported SI = CC50 (normal cell line L-02)/IC50 (tumor cell line), molecule COc1cc(/C=N/O)nc(-c2ccccn2)c1O [Compound 4] : ____
Key: 1.2

* * *

# Tested on: human breast cancer cell lines (MCF-7 cells)
# measurement_notes: In vitro antitumor activity, MTT method
# Type: cell-based
# cond: Homo sapiens, MCF7; MCF-7 cell line, MTT, 72 hours; read-out: Cytotoxic Activity IC50
measurement_label: IC50 (µM)
Answer format: numeric, µM implied, no suffix.

Exercise: Reported IC50, compound COc1cc(C=O)nc(-c2ccccn2)c1 [Compound 6] : ____
Key: 12

* * *

# Test system: human colon cancer cell lines (HCT-116 cells)
# measurement_notes: In vitro antitumor activity, SRB method
# Assay type: cell-based
# cond: Homo sapiens, HCT-116, 72 h, read-out: Cytotoxic Activity IC50
Each item that follows carries a reported pIC50.
Would you please state pIC50, meaning minus log10 of the concentration in mol/L, as a bare number?

COc1cc(/C=N/O)nc(-c2ccccn2)c1O
5.85

Exercise: Reported pIC50, molecule COc1cc(/C=N/O)nc(-c2ccccn2)c1 : ____
Key: 6.52
